assayed.target: glycosyltransferase (PBP 1b) (Escherichia coli)
Sequence (P02919 whole entry): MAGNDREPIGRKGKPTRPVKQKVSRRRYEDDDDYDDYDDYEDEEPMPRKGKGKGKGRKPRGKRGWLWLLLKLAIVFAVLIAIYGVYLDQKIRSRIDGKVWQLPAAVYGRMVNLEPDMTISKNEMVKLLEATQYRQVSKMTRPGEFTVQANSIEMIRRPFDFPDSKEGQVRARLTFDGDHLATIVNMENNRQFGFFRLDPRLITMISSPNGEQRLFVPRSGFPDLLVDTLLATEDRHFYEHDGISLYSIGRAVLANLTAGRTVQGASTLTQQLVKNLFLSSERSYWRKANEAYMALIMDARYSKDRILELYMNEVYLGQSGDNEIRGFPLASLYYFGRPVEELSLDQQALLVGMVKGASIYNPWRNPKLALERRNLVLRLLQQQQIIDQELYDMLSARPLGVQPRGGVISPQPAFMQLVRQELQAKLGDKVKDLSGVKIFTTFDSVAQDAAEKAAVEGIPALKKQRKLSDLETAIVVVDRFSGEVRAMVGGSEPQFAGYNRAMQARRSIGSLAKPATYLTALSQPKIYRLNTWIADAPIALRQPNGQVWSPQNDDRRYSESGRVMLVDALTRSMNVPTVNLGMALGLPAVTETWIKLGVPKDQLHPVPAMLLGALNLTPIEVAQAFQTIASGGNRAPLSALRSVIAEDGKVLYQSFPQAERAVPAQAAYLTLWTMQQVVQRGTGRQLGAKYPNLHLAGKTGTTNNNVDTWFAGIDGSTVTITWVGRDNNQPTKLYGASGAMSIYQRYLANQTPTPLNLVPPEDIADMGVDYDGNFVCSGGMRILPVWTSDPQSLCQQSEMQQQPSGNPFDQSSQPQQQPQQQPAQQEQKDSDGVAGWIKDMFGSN
method: glycosyltransferase assay: displacement of 3H-moenomycin from the glycosyltransferase (PBP 1b)/3H-moenomycin complex
condition.parameters: displacement of 3H-moenomycin from PBP 1b; read-out: inhibitory constants (IC50 values) in the glycosyltransferase assay
Kindly state IC50 for each of the entries shown.
// return numeric value only (unit: µM, not printed)

### Prompt Give glycosyltransferase (PBP 1b) (Escherichia coli) IC50 for O=C(O)/C=C/C=C/C=C\c1ccccc1/C=C/C=C/C(=O)O
### Response 0.1

### Prompt Same read-out for C/C=C/C=C\C=C\C=C/c1ccccc1/C=C/C=C/C(=O)O [serpentene, reference compound] ?
### Response 18

### Prompt Same read-out for O=C(O)/C=C/C=C\C=C\C=C/c1ccccc1/C=C/C=C/C(=O)O ?
### Response 0.2

### Prompt Same read-out for CC(O)C(O)/C=C/C=C/C=C/c1ccccc1/C=C/C=C/C(=O)O (stereo not shown) ?
### Response 19
